# TEST: Cytotoxicity against mouse Neuro2a cells
# Format: functional, cell-based
# RUN_PARAMETERS: N2a
READOUT_LABEL: IC50 (µM)
Give bare numbers, in µM.

MOLECULE	IC50 / µM
CC1NC(=O)c2csc(n2)[C@H](C)NC(=O)[C@H](Cc2ccccc2)N(C)C(=O)[C@H](C(C)C)N(C)C(=O)[C@H](C(C)C)OC(=O)C1C (some centres not stated) [GUINEAMIDE B]	15

We next turn to a different molecule, shown below.
Enquiry: Give the measured IC50 of C#CCCCC1NC(=O)[C@H](C)N(C)C(=O)[C@H](C(C)C)NC(=O)[C@H](Cc2ccc(OC)cc2)N(C)C(=O)C(C(C)CC)OC(=O)C1C (some centres not stated) [GUINEAMIDE C] .
Return: 16

The measurements presented in this section are drawn from ChEMBL document CHEMBL1146527.
